target under test: chemokine receptor 1 (CCR1) (UniProt P56482)
measurement notes: competition radioligand binding, membranes of CHO-K1 cells expressing CCR1, tracer [125I]-MIP-1 alpha; mean ± SEM
reported property: pIC50
Entry type: numeric. Quantity: pIC50, the -log10 of concentration in molar units.

Exam item: // lookup pIC50 for AOP-RANTES (ligand)
Marked response: 8.57

Continuing:
Exam item: Param item = NNY-RANTES (ligand) ; retrieve measured pIC50.
Marked response: 8.27
